Reference for the values: ChEMBL document CHEMBL4513216

assay: Toxicity liver stage against HepG2, at 10uM; format: cell-based; set-up: test concentration 10 uM, cell line HepG2-A16-CD81EGFP; conditions: human, HepG2-A16-CD81EGFP cells; read-out: INHIBITION
assay.metric: cytotoxicity at 10 µM (%)
Write the value in % as a bare number.

Worked examples, 5 compounds total:
N#Cc1cccc(N2CCCC3(CCC(=O)N(C4CCCC4)C3)C2)n1 (centres undefined) :: -0.0436
CC(NCC1CCN(CCO)CC1)c1cccc(Cl)c1 (centres undefined) :: -12.5
CCN(Cc1cnn(C)c1)C(=O)c1ccc(C)c(N2CCNC2=O)c1 :: -7.08
CN(C)S(=O)(=O)NCc1cccnc1Oc1ccccc1F :: 1.81
COCCC1(CNC(=O)NCC2CCCS2)CCCC1 (centres undefined) :: 0.96

Please give the measured cytotoxicity at 10 µM for this compound: Cc1nc(C(=O)N(C)CC(F)(F)C(F)(F)F)c2ccccn12 2.56

Please give the measured cytotoxicity at 10 µM for this compound: Cc1cc(CSCc2csc(CS(C)(=O)=O)n2)no1 -2.49
